Some compounds, each annotated with its measured growth.
# Test system: HT29 colon
# test.method.notes: NCI-60 one-dose screen, 48 h (100 = growth as untreated, 0 = no growth, -100 = all killed)
# run.conditions: 10 µM unless noted
This is part of a sample that, as a whole, favours compounds with a hit. Of some 83,000 tested, about 20% had one in any assay.
State just the number; it will be interpreted in %.

Examples from the recorded data:
COc1ccc(C(=O)N=Nc2c(O)n(C)c3ccccc23)cc1 | 103
O=C1c2cccc3cccc(c23)C(=O)N1Nc1nc(NC2CCCCC2)nc(N2CCOCC2)n1 | 107
N#Cc1c(-c2ccc(Cl)cc2)nc2c(c(-c3ccccc3)nn2-c2ccccc2)c1-c1ccc(O)cc1 | 91.8
CCOC(=O)C1=C(N)Oc2c(sc3c(C)cccc23)C1c1ccc(Cl)cc1 (stereo not given) | 14.8

Now take the following compound into account.
Query: Requested field: growth. Item: Cc1c(C(=O)NCCN2CCOCC2)cn2ncnc(Oc3ccc(NC(=O)Nc4ccc(Cl)c(C(F)(F)F)c4)cc3)c12
Result: 7.93
